# Tested on: DMS-153
# experimental protocol: cells
# Format: functional, cell-based
# measurement parameters: Homo sapiens
# Description: SANGER: Inhibition of human DMS-153 cell growth in a cell viability assay.
Some compounds, each annotated with its measured IC50.

Would you please look over these solved cases?
Q. What value of IC50 has been recorded for this entry: O=C(/C=C/c1ccccc1)NC(NC(=S)Nc1cccc2cccnc12)C(Cl)(Cl)Cl (centres undefined) [SALUBRINAL]
A. > 16000 nM

Q. What value of IC50 has been recorded for this entry: CNC(=O)c1cc(Oc2ccc(NC(=O)Nc3ccc(Cl)c(C(F)(F)F)c3)cc2)ccn1 [SORAFENIB]
A. > 4000 nM

Q. What value of IC50 has been recorded for this entry: CCC(=O)N1CCN(c2ccc(-n3c(=O)ccc4cnc5ccc(-c6cnc7ccccc7c6)cc5c43)cc2C(F)(F)F)CC1 [TORIN1]
A. > 1200 nM

Next, consider the following compound.
Q. What value of IC50 has been recorded for this entry: CCC1=C[C@@H]2CN(C1)Cc1c([nH]c3ccccc13)[C@@](C(=O)OC)(c1cc3c(cc1OC)N(C)[C@H]1[C@@](O)(C(=O)OC)[C@H](OC(C)=O)[C@]4(CC)C=CCN5CC[C@]31[C@@H]54)C2 [VINORELBINE]
A. > 64 nM

###

# Tested on: CAL-27;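 note: Viability-based readout, IC50 reflecting inhibition of CAL-27 cell growth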
# experimental protocol: cells
# Format: functional, cell-based, Homo sapiens
# measurement parameters: Homo sapiens, CAL-27
# Description: SANGER: Inhibition of human CAL-27 cell growth in a cell viability assay.
Some molecules, each annotated with its measured IC50.
Report the value in nM with no unit label.

Q. What value of IC50 has been recorded for this entry: CCC1=C[C@@H]2CN(C1)Cc1c([nH]c3ccccc13)[C@@](C(=O)OC)(c1cc3c(cc1OC)N(C)[C@H]1[C@@](O)(C(=O)OC)[C@H](OC(C)=O)[C@]4(CC)C=CCN5CC[C@]31[C@@H]54)C2 [VINORELBINE]
A. 32

Others:
Q. What value of IC50 has been recorded for this entry: C=CCNC1=C2C[C@@H](C)C[C@H](OC)[C@H](O)[C@@H](C)/C=C(\C)[C@H](OC(N)=O)[C@@H](OC)/C=C\C=C(/C)C(=O)NC(=CC1=O)C2=O [TANESPIMYCIN]
A. 190

###

# Test system: SNU-387
# experimental protocol: cells
# Format: functional, cell-based, Homo sapiens
# measurement parameters: snu-387
# Description: SANGER: Inhibition of human SNU-387 cell growth in a cell viability assay.
value kind: IC50

Q. What value of IC50 has been recorded for this entry: Cc1cc([C@@H](C)Nc2ccccc2C(=O)O)c2nc(N3CCOCC3)cc(=O)n2c1 [AZD-6482]
A. > 5.12 µM

###

# Tested on: NH-12
# experimental protocol: cells
# Assay type: functional, cell-based, Homo sapiens
# measurement parameters: Homo sapiens, NH-12
# Description: SANGER: Inhibition of human NH-12 cell growth in a cell viability assay.
Some compounds, each annotated with its measured IC50.

Would you please look over these solved cases?
Q. Form field - read-out: IC50; system: NH-12; submitted item: CO[C@H]1C[C@@H]2CC[C@@H](C)[C@@](O)(O2)C(=O)C(=O)N2CCCC[C@H]2C(=O)O[C@H]([C@H](C)C[C@@H]2CC[C@@H](O)[C@H](OC)C2)CC(=O)[C@H](C)/C=C(\C)[C@@H](O)[C@@H](OC)C(=O)[C@H](C)C[C@H](C)/C=C/C=C/C=C/1C
A. > 100 nM

Q. Form field - read-out: IC50; system: NH-12; submitted item: O=C1N=C(NCc2cccs2)S/C1=C\c1ccc2ncccc2c1
A. > 5000 nM

Q. Form field - read-out: IC50; system: NH-12; submitted item: Cc1cc([C@@H](C)Nc2ccccc2C(=O)O)c2nc(N3CCOCC3)cc(=O)n2c1
A. > 5120 nM

Q. Form field - read-out: IC50; system: NH-12; submitted item: Nc1ccn([C@@H]2O[C@H](CO)[C@@H](O)[C@@H]2O)c(=O)n1
A. 1160 nM

Q. Form field - read-out: IC50; system: NH-12; submitted item: C[C@]1(O)C[C@@H](c2nc(-c3ccc4ccc(-c5ccccc5)nc4c3)c3c(N)nccn32)C1
A. 760 nM

Next, consider the following compound.
Q. Form field - read-out: IC50; system: NH-12; submitted item: CC1=C2C[C@H]3[C@@H](CC=C4C[C@@H](O)CC[C@@]43C)[C@@H]2CC[C@]12O[C@@H]1C[C@H](C)CN[C@H]1[C@H]2C;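 note: growth inhibition of NH-12 cells, read out with a cell viability assay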
A. > 16000 nM
